molecular target: DCN1 (DCUND1) protein PONY domain (Homo sapiens (Human), UniProt Q96GG9); experiment: TR-FRET assay, DCN1 binding with FAM-labeled probe; details: 24 hr after treatment with compound; read-out: TR FRET IC50 24 hr
Sequence (Q96GG9 60-248): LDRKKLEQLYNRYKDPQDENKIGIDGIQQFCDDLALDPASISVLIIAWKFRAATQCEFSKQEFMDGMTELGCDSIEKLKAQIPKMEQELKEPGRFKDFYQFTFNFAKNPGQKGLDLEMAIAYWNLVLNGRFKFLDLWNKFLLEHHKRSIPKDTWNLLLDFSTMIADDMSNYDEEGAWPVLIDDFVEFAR
Item-by-item account of IC50

Compound | Recorded Value
CCN1C(=O)[C@@H](NC(=O)c2cccc(C(F)(F)F)c2)[C@@H](c2ccc(F)cc2)c2c(CNC(=O)/C=C/C(=O)NCCO)nn(-c3ccccc3)c21 (racemic) [Compound I-15] | 1000 to 3000 nM
CCN1C(=O)[C@@H](NC(=O)c2cccc(C(F)(F)F)c2)[C@@H](C2CC2)c2c(C(=O)N(CC#N)C3CC3)nn(C3CC3)c21 [Compound I-702] | 200 to 1000 nM
CCN1C(=O)[C@@H](NC(=O)c2cccc(C(F)(F)F)c2)[C@@H](C2CC2)c2c(C(=O)N3CC[C@H]3C#N)nn(-c3ccccc3)c21 [Compound I-561] | ≤ 200 nM
CCN1C(=O)[C@@H](NC(=O)c2cccc3[nH]cnc23)[C@@H](C2CC2)c2c(C(=O)N3[C@H](C#N)C[C@H]4C[C@H]43)nn(C3CCOCC3)c21 [Compound I-446] | 1000 to 3000 nM

The record that follows has no IC50 shown yet.
# lookup: IC50 of CCN1C(=O)[C@@H](NC(=O)c2cccc(C(F)(F)F)c2)[C@@H](c2ccc(F)cc2)c2c(C(C)(C)NC#N)nn(-c3ccccc3)c21 (racemic) [Compound I-144]
200 to 1000 nM

====

target: DCN1 (DCUND1) protein PONY domain (Homo sapiens (Human)); experiment: TR-FRET assay, DCN1 binding with FAM-labeled probe; conditions: TR FRET IC50 1 hr (nM), 1 hr after treatment with compound
Metric: IC50

Compound | IC50
CCN1C(=O)[C@@H](NC(=O)c2cccc(C(F)(F)F)c2)[C@@H](c2ccc(F)cc2)c2c(/C=C3/CCC(=O)N3)nn(-c3ccccc3)c21 (racemic) [Compound I-70] | 1000 to 3000 nM
CCN1C(=O)[C@H](NC(=O)c2cccc(C(F)(F)F)c2)[C@H](c2ccc(F)cc2)c2c(C(=O)N3[C@H](C#N)C[C@@H]4C[C@@H]43)nn(-c3ccccc3)c21 [Compound I-463] | 1000 to 3000 nM
CCN1C(=O)[C@@H](NC(=O)c2cccc(C(F)(F)F)c2)[C@@H](c2ccc(F)cc2)c2c(C(=O)N(C)[C@@H](C#N)CCN3CC4CCC(C3)O4)nn(-c3ccccc3)c21 (mixture of isomers) [Compound I-319] | 1000 to 3000 nM
C/C=C/S(=O)(=O)NCc1nn(-c2ccccc2)c2c1[C@H](c1ccc(F)cc1)[C@H](NC(=O)c1cccc(C(F)(F)F)c1)C(=O)N2CC (racemic) [Compound I-6] | 200 to 1000 nM

Next item in the queue.
Would you mind telling me what IC50 value was observed for CCN1C(=O)[C@@H](NC(=O)c2cccc(C(F)(F)F)c2)[C@@H](C2CC2)c2c(C(=O)N3C[C@@H](NC)C[C@H]3C#N)nn(C3CCOCC3)c21 [Compound I-503] ?
1000 to 3000 nM

====

target: DCN1 (DCUND1) protein PONY domain (Homo sapiens (Human)); test: TR-FRET assay, DCN1 binding with FAM-labeled probe; settings: TR FRET IC50 1 hr (nM), 1 hr after treatment with compound
Metric: IC50

Entry CCN1C(=O)[C@H](NC(=O)c2cccc(C(F)(F)F)c2)[C@H](c2ccc(F)cc2)c2c(C(=O)N3CCOC[C@H]3C#N)nn(-c3ccccc3)c21 [Compound I-540] : reported IC50 = ?
1000 to 3000 nM

Okay, and CCN1C(=O)[C@H](NC(=O)c2cccc(C(F)(F)F)c2)[C@H](c2ccc(F)cc2)c2c(C(=O)N3CCC[C@H]3C#N)nn(C3CCOCC3)c21 [Compound I-401] ?
1000 to 3000 nM

Another compound: CCN1C(=O)[C@@H](NC(=O)c2ccn(C(C)(C)C)n2)[C@@H](C2CC2)c2c(C(=O)N3[C@H](C#N)C[C@H]4C[C@H]43)nn(C3CCOCC3)c21 [Compound I-688]
200 to 1000 nM

Further, for CCN1C(=O)[C@@H](NC(=O)c2ccc3ncsc3c2)[C@@H](C2CC2)c2c(C(=O)N3[C@H](C#N)C[C@H]4C[C@H]43)nn(C3CCOCC3)c21 [Compound I-669] ?
1000 to 3000 nM

Now this one: CCN1C(=O)[C@H](NC(=O)c2cccc(C(F)(F)F)c2)[C@H](c2ccc(F)cc2)c2c(C(=O)N3CCC[C@H]3C#N)nn(-c3cccc(OCCCN4CCOCC4)c3)c21 [Compound I-544]
1000 to 3000 nM

Same lookup for CCN1C(=O)[C@H](NC(=O)c2cccc(C(F)(F)F)c2)[C@@H](c2ccc(F)cc2)c2c(CNC(=O)/C(C)=C/C(=O)OC)nn(-c3ccccc3)c21 [Compound I-108] , please.
200 to 1000 nM

Next: C=C(CN1CCC1)C(=O)NCc1nn(-c2ccccc2)c2c1[C@@H](C1CC1)[C@@H](NC(=O)c1cccc(C(F)(F)F)c1)C(=O)N2CC (stereo in doubt) [Compound I-636]
1000 to 3000 nM

Please give the result for CCN1C(=O)[C@@H](NC(=O)C23CC(C(F)(F)F)(C2)C3)[C@@H](C2CC2)c2c(C(=O)N3[C@H](C#N)C[C@H]4C[C@H]43)nn(C3CCOCC3)c21 [Compound I-701] too.
1000 to 3000 nM

What do we get for CCN1C(=O)[C@H](NC(=O)c2cccc(C(F)(F)F)c2)[C@H](c2ccc(F)cc2)c2c(C(=O)N3C[C@H](F)C[C@@H]3C#N)nn(-c3ccccc3)c21 (mixture of isomers) [Compound I-253] ?
1000 to 3000 nM

What do you have for CCN1C(=O)[C@@H](NC(=O)c2cccc(C(F)(F)F)c2)[C@@H](c2ccc(F)cc2)c2c(C(=O)N3[C@H](C#N)C[C@@H]4C[C@@H]43)nn(-c3ccccc3)c21 [Compound I-450] ?
1000 to 3000 nM

Also, CCN1C(=O)[C@@H](NC(=O)c2cccc(C(F)(F)F)c2)[C@@H](C2CC2)c2c(C(=O)N(CC#N)C3CC3)nn(-c3ccccc3)c21 [Compound I-619] please.
1000 to 3000 nM

====

molecular target: DCN1 (DCUND1) protein PONY domain (Homo sapiens (Human), UniProt Q96GG9); experiment: TR-FRET assay, DCN1 binding with FAM-labeled probe; conditions: TR FRET IC50 1 hr (nM), 1 hr after treatment with compound
Metric: IC50

Examples with answers:
Molecule | IC50
CCN1C(=O)[C@@H](NC(=O)c2cccc(C(F)(F)F)c2)[C@@H](c2ccc(F)cc2)c2c(CC/C=C/C(=O)O)nn(-c3ccccc3)c21 (racemic) | 200 to 1000 nM
CCN1C(=O)[C@@H](NC(=O)c2cccc(C(F)(F)F)c2)[C@@H](c2ccc(F)cc2)c2c(C(=O)N3[C@H](C#N)C[C@H]4C[C@H]43)nn([C@@H]3CCOC3)c21 (single isomer, unassigned) | 1000 to 3000 nM
CCN1C(=O)[C@@H](NC(=O)c2cccc(C(F)(F)F)c2)[C@@H](c2ccc(F)cc2)c2c(CN(C)C(=O)C(F)Cl)nn(-c3ccccc3)c21 (mixture of isomers) | 200 to 1000 nM
CCN1C(=O)[C@@H](NC(=O)C2(c3ccccc3)CC2)[C@@H](C2CC2)c2c(C(=O)N3[C@H](C#N)C[C@H]4C[C@H]43)nn(C3CCOCC3)c21 | 1000 to 3000 nM

For the molecule shown here, `CCN1C(=O)[C@@H](NC(=O)c2cccc(C(F)(F)F)c2)[C@@H](c2ccc(F)cc2)c2c([C@@H](CO)NC#N)nn(-c3ccccc3)c21` , give the reported IC50.
200 to 1000 nM

====

molecular target: DCN1 (DCUND1) protein PONY domain (Homo sapiens (Human), UniProt Q96GG9); assay: TR-FRET assay, DCN1 binding with FAM-labeled probe; details: TR FRET IC50 1 hr (nM), 1 hr after treatment with compound
Below, each of the molecules is paired with its reported IC50 value.

Molecule | Metric | Recorded Value
CCN1C(=O)[C@@H](NC(=O)c2cccc(C(F)(F)F)c2)[C@@H](c2ccc(F)cc2)c2c(C#N)nn(-c3ccccc3)c21 (racemic) [Compound I-115] | IC50 | > 3000 nM
CCN1C(=O)[C@@H](NC(=O)c2cccc(C(F)(F)F)c2)[C@@H](c2ccc(F)cc2)c2c(C(=O)N3CCOC[C@H]3C#N)nn(-c3ccccc3)c21 [Compound I-276] | IC50 | 200 to 1000 nM
CCN1C(=O)[C@@H](NC(=O)c2cccc(C(F)(F)F)c2)[C@@H](C2CCCC2)c2c(C(=O)N(CC#N)C3CC3)nn(C3CCOCC3)c21 [Compound I-478] | IC50 | 1000 to 3000 nM
CCN1C(=O)[C@@H](NC(=O)c2cccc(C(F)(F)F)c2)[C@@H](c2ccc(F)cc2)c2c(NC(=O)/C=C/C(=O)OC)nn(-c3ccccc3)c21 (racemic) [Compound I-136] | IC50 | 200 to 1000 nM
CCN1C(=O)[C@H](NC(=O)c2cccc(C(F)(F)F)c2)[C@H](c2ccc(F)cc2)c2c(C(=O)N3CCNC[C@H]3C#N)nn(-c3ccccc3)c21 [Compound I-453] | IC50 | 1000 to 3000 nM
CCN1C(=O)[C@@H](NC(=O)c2cccc(C(F)(F)F)c2)[C@@H](c2ccc(F)cc2)c2c(C(=O)NCCC#N)nn(-c3ccccc3)c21 (racemic) [Compound I-81] | IC50 | 1000 to 3000 nM
CCN1C(=O)[C@@H](NC(=O)c2cccc(C(F)(F)F)c2)[C@@H](C2CC2)c2c(CN(C)C#N)nn(-c3ccccc3)c21 [Compound I-111] | IC50 | 1000 to 3000 nM
CCN1C(=O)[C@H](NC(=O)c2cccc(C(F)(F)F)c2)[C@@H](c2ccc(F)cc2)c2c(C3(NC#N)CC3)nn(-c3ccccc3)c21 (racemic) [Compound I-84] | IC50 | 1000 to 3000 nM

Now, please, on to the next molecule.
Using the record for CCN1C(=O)[C@@H](NC(=O)c2cccc(C(F)(F)F)c2)[C@@H](c2ccc(F)cc2)c2c([C@@H](CCO)NC#N)nn(-c3ccccc3)c21 (mixture of isomers) [Compound I-567] , report its IC50.
1000 to 3000 nM
